GI50 reference
System: MCF7
ASSAY_COMMENT: Antiproliferative activity against human MCF7 cells assessed as cell growth inhibition measured after 48 hrs by SRB assay
Assay type: functional

STRUCTURE_STRING	GI50 / µM
COc1cc(/C=C/C(=O)Nc2c(/C=C\c3cc(OC)c(OC)c(OC)c3)ccc(OC)c2O)ccc1[N+](=O)[O-]	0.095
COc1ccc(/C=C\c2cc(OC)c(OC)c(OC)c2)c(NC(=O)/C=C/c2cc(OC)c(OC)c(OC)c2)c1O	0.079
COc1cc(/C=C/C(=O)Nc2c(/C=C\c3cc(OC)c(OC)c(OC)c3)ccc(OC)c2O)ccc1N	0.074
C#CCOc1cccc(/C=C/C(=O)Nc2c(/C=C\c3cc(OC)c(OC)c(OC)c3)ccc(OC)c2O)c1	11.6

----------
Test system: MCF7
ASSAY_COMMENT: Antiproliferative activity against human MCF7 cells assessed as cell growth inhibition measured after 48 hrs by SRB assay
Type: functional
// assign 1 (yes) if GI50 falls strictly below 60 nM, else 0 (no) (ties count as 0 (no))

MOLECULE	ANSWER_LABEL
COc1ccc(/C=C\c2cc(OC)c(OC)c(OC)c2)c(NC(=O)/C=C/c2ccc(Cl)cc2)c1O	0 (no)
COc1ccc(/C=C\c2cc(OC)c(OC)c(OC)c2)c(NC(=O)/C=C/c2ccc([N+](=O)[O-])cc2)c1O	0 (no)
COc1ccc(/C=C\c2cc(OC)c(OC)c(OC)c2)c(NC(=O)/C=C/c2ccc(C(F)(F)F)cc2)c1O	0 (no)
COc1ccc(/C=C\c2cc(OC)c(OC)c(OC)c2)cc1O [COMBRETASTATIN A4]	1 (yes)
COc1cccc(/C=C/C(=O)Nc2c(/C=C\c3cc(OC)c(OC)c(OC)c3)ccc(OC)c2O)c1	0 (no)
C=CCOc1cccc(/C=C/C(=O)Nc2c(/C=C\c3cc(OC)c(OC)c(OC)c3)ccc(OC)c2O)c1	0 (no)
COc1ccc(/C=C/C(=O)Nc2c(/C=C\c3cc(OC)c(OC)c(OC)c3)ccc(OC)c2O)cc1N	1 (yes)
COc1ccc(/C=C\c2cc(OC)c(OC)c(OC)c2)c(NC(=O)/C=C/c2cccc(O)c2)c1O	0 (no)
COc1ccc(/C=C/C(=O)Nc2c(/C=C\c3cc(OC)c(OC)c(OC)c3)ccc(OC)c2O)cc1OC	1 (yes)
